Data origin: the RepoRT retention time repository (doi:10.1016/j.jchromb.2020.122105)

- Assay Comment: RP, Waters ACQUITY UPLC BEH C18, 100 × 2.1 mm, 1.7 µm, 0.2 mL/min, estimated dead time 1.1 min; A: water + 0.025% formic acid + 20 mM ammonium acetate + 0.055% ammonium hydroxide, pH 7; B: methanol; gradient (min/%B) 0/5 5/5 25/100 30/100 30.1/5 35/5
- Test Parameters: stereoisomer not certain
Assay Metric: LC retention time (min)
Give the value, in units of min, as a plain number.

{"Compound": "CC(=O)N[C@@H](CC(C)C)C(=O)O [N-ACETYL-L-LEUCINE]", "Assay Metric": "LC retention time", "Endpoint Result": 6.59}

Next compound, LC retention time to be filled in.
Task item: Recorded LC retention time for CC(=O)N[C@@H](CC(=O)O)C(=O)O [N-ACETYL-L-ASPARTIC ACID] , please?
Reply: 1.36

* * *

This listing pairs compounds with measured LC retention time.
- Assay Comment: RP, Waters CORTECS T3, 100 × 2.1 mm, 2.7 µm, 0.2 mL/min, estimated dead time 1.1 min; A: water + 0.1% formic acid, pH 3; B: methanol + 0.1% formic acid, pH 3; gradient (min/%B) 0/0 1/0 6/5 30/100 35/100 35.1/0 40/0
- Test Parameters: stereoisomer not certain
Give the value, in units of min, as a plain number.

Completed entries (count: 6):
{"Compound": "Nc1ccn(C2OC(CO)C3OP(=O)([O-])OC32)c(=O)n1 (centres undefined) [CYTIDINE 2',3'-CYCLIC MONOPHOSPHATE]", "Endpoint Result": 1.34}
{"Compound": "Cn1c(=O)c2c(ncn2C)n(C)c1=O [CAFFEINE]", "Endpoint Result": 13}
{"Compound": "CC1NCCc2cc(O)c(O)cc21 (centres undefined) [1-METHYL-6,7-DIHYDROXY-1,2,3,4-TETRAHYDROISOQUINOLINE]", "Endpoint Result": 1.34}
{"Compound": "CC(C)=CCNc1ncnc2nc[nH]c12 [N6-(DELTA2-ISOPENTENYL)-ADENINE]", "Endpoint Result": 15}
{"Compound": "CC12CCC(=O)C=C1CCC1C2C(O)CC2(C)C1CCC2(O)C(=O)CO (centres undefined) [CORTISOL]", "Endpoint Result": 20.8}
{"Compound": "NC(Cc1ccc(Oc2cc(I)c(O)c(I)c2)c(I)c1)C(=O)O (centres undefined) [3,3',5'-TRIIODOTHYRONINE]", "Endpoint Result": 21.4}

Task item: Recorded LC retention time for N[C@@H](CCOC(=O)CCC(=O)O)C(=O)O [O-SUCCINYL-L-HOMOSERINE] , please?
Reply: 1.34

Task item: CC(C)(CO)C(O)C(=O)NCCC(=O)O [D-PANTOTHENIC ACID] , same question.
Reply: 9.51

Task item: CC1C(=O)Nc2ccccc21 (centres undefined) [3-METHYL-2-OXINDOLE] , same question.
Reply: 17

* * *

- Assay Comment: RP, Waters ACQUITY UPLC BEH C18, 100 × 2.1 mm, 1.7 µm, 0.2 mL/min, estimated dead time 1.1 min; A: water + 0.025% formic acid + 20 mM ammonium acetate + 0.055% ammonium hydroxide, pH 7; B: methanol; gradient (min/%B) 0/5 5/5 25/100 30/100 30.1/5 35/5
- Test Parameters: stereoisomer not certain
Assay Metric: LC retention time (min)
Give the value, in units of min, as a plain number.

Task item: Recorded LC retention time for Cn1cncc1CC(NC(=O)CCN)C(=O)O [L-ANSERINE] , please?
Reply: 1.41

Task item: CC(=O)NCCc1c[nH]c2ccc(O)cc12 [N-ACETYLSEROTONIN] , same question.
Reply: 10.2

Task item: CCC(NC(=O)CCC(N)C(=O)O)C(=O)NCC(=O)O (centres undefined) [OPHTHALMIC ACID] , same question.
Reply: 1.36

Task item: CSCCC(NC=O)C(=O)O [FORMYL-L-METHIONYL PEPTIDE] , same question.
Reply: 2.14
